ASSAY METHOD TEXT: calcein-AM signal in unstimulated myeloma cells – cell-based, calcein-AM fluorescence, 48 h, PK04 Diversity Set, profiling panel (AID 1166);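 note: cells grown under basal conditions without added stimulus; test concentration not given here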
RUN CONDITIONS: RPMI8226 myeloma viability, higher = more signal
A collection of compounds and their measured z-score
QUANTITY: z-score

{"columns": ["COMPOUND", "RECORDED MEASUREMENT"],
 "data": [
  ["CN(C)CCCN1C(=O)[C@@]2(c3ccc([N+](=O)[O-])cc3)CC(=O)N(C3CCCCC3)[C@@H]2c2ccc(CO)cc21", 0.505],
  ["CCCCN1CC=CC23O[C@@H]4C=CCCOC(=O)C4[C@H]2C(=O)N(CCCO)[C@@H]3C1=O (stereo partly drawn)", -0.913],
  ["C=CCNC(=O)[C@@H]1[C@H]2C(=O)O[C@H](c3ccccc3)[C@H](c3ccccc3)N2[C@H](c2ccccc2OCCO)[C@@]12C(=O)N(C(=O)OCCOC)c1ccc(C#CCC(C(=O)OC)C(=O)OC)cc12", -1.57],
  ["Cc1ccc(N2C(=O)c3ccccc3[C@@H](C(=O)NC(C)C)[C@@H]2c2ccc(CO)cc2)nc1", -0.526],
  ["O=C1O[C@@H](c2ccccc2)[C@@H](c2ccccc2)N2[C@@H](c3ccc(O)cc3)[C@]3(C(=O)Nc4ccccc43)[C@@H](C(=O)N3CCCCCCC3)[C@H]12", -2.29],
  ["COCCOC(=O)N1C(=O)[C@@]2(c3ccccc31)[C@H](C(=O)N1CCCCCCC1)[C@H]1C(=O)O[C@H](c3ccccc3)[C@H](c3ccccc3)N1[C@@H]2c1ccccc1OCCO", -1.84],
  ["CCCCCCCCCCC(O)C1C=CC2C(=O)N(c3ccccc3)C(=O)C2N1Nc1ccc([N+](=O)[O-])cc1 (stereo not drawn)", -4.22],
  ["COC(=O)c1nc2oc1CC[C@@H](CO)NC(=O)N(C)Cc1cn(nn1)C[C@H](Cc1ccccc1)NC2=O", 0.854],
  ["O=C1C2C=CC(C(O)c3ccccn3)N(Nc3ccccc3F)C2C(=O)N1c1ccccc1 (stereo not drawn)", -0.217],
  ["[N-]=[N+]=NCc1ccccc1C[C@]1(C(=O)NCCN2CCOCC2)N=C(c2ccc(OCCCO)cc2)O[C@H]1c1ccccc1CN=[N+]=[N-]", -3.34],
  ["CCCC[C@H]1OB(O)C[C@H]2C1=C(COc1ccccc1)C[C@H]1C(=O)N(Cc3ccccc3)C(=O)[C@H]12", -1.08],
  ["COc1ccc([Si](C)(C)[C@H]2[C@H](CC(=O)N3CCC[C@H]3CO)O[C@@]3(C(=O)N(c4ccccc4)c4ccccc43)[C@@H]2C)cc1", 0.912],
  ["O=C1C[C@@](C(=O)O)(c2ccc([N+](=O)[O-])cc2)[C@@H](c2ccc(CO)cc2I)N1CC12CC3CC(CC(C3)C1)C2", -4.35],
  ["COc1ccc(C#Cc2ccc3c(c2)[C@]2(C(=O)N3)[C@H](C(=O)N3CCN(c4ncccn4)CC3)[C@H]3C(=O)O[C@H](c4ccccc4)[C@H](c4ccccc4)N3[C@@H]2c2ccc(O)cc2)cc1", -0.404],
  ["COc1ccc(CCNC(=O)[C@@]2(C)c3ccccc3C(=O)N(Cc3ccccc3)[C@H]2c2ccc(CO)cc2)cc1", -2.55],
  ["O=C1O[C@@H](c2ccccc2)[C@@H](c2ccccc2)N2[C@@H](c3ccc(O)cc3)[C@]3(C(=O)Nc4ccc(C#CCCO)cc43)[C@@H](C(=O)O)[C@H]12", -0.16],
  ["CN1C(=O)C2C=CC(C(O)c3ccccc3)N(NC(=O)OC(C)(C)C)C2C1=O (stereo not drawn)", -0.386],
  ["[N-]=[N+]=NCc1ccccc1[C@H]1OC(c2ccc(OCCCO)cc2)=N[C@@]1(Cc1ccccc1)C(=O)O", 0.465],
  ["COC(=O)[C@@]1(Cc2ccc(F)cc2)[C@H]2c3cc(C(=O)N4CCCC4)n(Cc4ccc(Cl)c(C(F)(F)F)c4)c3C[C@H]2CN1C(=O)c1ccccc1", -2.4],
  ["O=[N+]([O-])c1ccc(C[n+]2ccc(CCCO)cc2)o1", -2.35],
  ["O=P(NCC1(CC2(c3ccccc3)CO2)CC1)(c1ccccc1)c1ccccc1 (stereo not drawn)", 0.0906],
  ["CC(C)N1C(=O)c2ccccc2[C@](C)(C(=O)NC2CC2)[C@@H]1c1ccc(CO)cc1", 0.27],
  ["O=C1C2C=CC(C(O)C3CC=CCC3)N(n3cnnc3)C2C(=O)N1Cc1ccccc1 (stereo not drawn)", -0.255],
  ["CCCCCN1CC=CC23O[C@@H]4C=CCCOC(=O)C4[C@H]2C(=O)N(CCCO)[C@@H]3C1=O (stereo partly drawn)", -0.0158],
  ["COc1ccccc1CN1C(=O)c2ccccc2[C@](Cc2ccccc2I)(C(=O)NC2CC2)[C@@H]1c1ccc(CO)cc1", -1.54],
  ["COCCOC(=O)N1C(=O)[C@@]2(c3cc(C#CCC(C(=O)OC)C(=O)OC)ccc31)[C@H](c1ccc(OCCO)cc1)N1[C@H](c3ccccc3)[C@H](c3ccccc3)OC(=O)[C@H]1[C@@H]2C(=O)NC[C@H](O)c1ccccc1", -2.01],
  ["C=CC[C@]1(C(=O)NCCN2CCOCC2)N=C(c2ccc(OCCCO)cc2)O[C@H]1c1ccccc1N=[N+]=[N-]", -0.766],
  ["C=CCNC(=O)[C@H]1[C@@H]2C(=O)O[C@@H](c3ccccc3)[C@@H](c3ccccc3)N2[C@@H](c2ccc(OCCO)cc2)[C@]12C(=O)N(C(=O)OCCOC)c1ccc(C#CC3(O)CCCCCC3)cc12", -2.4]
]}

###

This section presents compounds with their documented z-score values.
ASSAY METHOD TEXT: plasmodial surface anion channel blockers, osmotic lysis – cell-based, P. falciparum Indochina, OD700, 18 h, primary screen (AID 1157)
RUN CONDITIONS: P. falciparum Indochina infected erythrocytes, osmotic lysis OD700, 18 h; higher = more signal, called active from +8 up or from −8 down

{"columns": ["COMPOUND", "z-score"],
 "data": [
  ["C=CCN1C(=O)[C@@]2(O[C@@H](CCO)[C@H]([Si](C)(C)c3ccc(OC)cc3)[C@H]2C)c2cc(NC(C)=O)ccc21", 1.26],
  ["[N-]=[N+]=Nc1ccccc1[C@@H]1OC(c2ccc(OCCCO)cc2)=N[C@]1(CCS(=O)(=O)c1ccccc1)C(=O)O", 4.63],
  ["Cc1ccc(N2C(=O)c3ccccc3[C@@H](C(=O)NC(C)C)[C@@H]2c2ccc(CO)cc2)nc1", 0.596],
  ["COCCOC(=O)N1C(=O)[C@@]2(c3cc(C#CCCO)ccc31)[C@H](c1ccc(O)cc1)N1[C@H](c3ccccc3)[C@H](c3ccccc3)OC(=O)[C@H]1[C@@H]2C(=O)N1CCCCCCC1", 0.0501],
  ["CC(C)CNC(=O)[C@@]1(C)c2ccccc2C(=O)N(C(C)C)[C@H]1c1ccc(CO)cc1", -0.0642],
  ["COc1ccc([Si](C)(C)[C@H]2[C@H](CC(=O)N3CCC[C@H]3CO)O[C@@]3(C(=O)N(c4ccccc4)c4ccccc43)[C@@H]2C)cc1", -0.284],
  ["CCN(CC)c1ccc(N2CC=CC34O[C@@H]5/C=C\\CCC(C)OC(=O)C5[C@H]3C(=O)N(CCCCCCO)[C@@H]4C2=O)cc1 (stereo partly drawn)", 0.33],
  ["C=C[C@H](C)[C@H](OC(=O)Nc1ccc(OC)cc1)c1ccc(O)c2ccccc12", -0.187],
  ["CC(=O)N1Cc2ccccc2C[C@@]2(N=C(c3ccc(OCCCO)cc3)O[C@H]2c2ccccc2)C1=O", 0.944],
  ["[N-]=[N+]=NCc1ccccc1[C@@H]1OC(c2ccc(OCCCO)cc2)=N[C@]1(Cc1ccccc1)C(=O)O", 0.786],
  ["O=C(NCC(O)CO)[C@@]1(Cc2ccccc2)N=C(c2ccc(OCCCO)cc2)O[C@H]1c1ccccc1 (stereo partly drawn)", 1.28],
  ["CC(=O)NCCCC[C@@H]1NC(=O)[C@@H]2C[C@H](C(=O)NCCCCCC[N+](C)(C)C)[C@H](c3cccc(OCCO)c3)N2C1=O", 0.325],
  ["CC(C)(C)OC(=O)CC[C@@]1(C(=O)NCC(O)CO)N=C(c2ccc(OCCCO)cc2)O[C@@H]1c1ccccc1 (stereo partly drawn)", 0.519],
  ["O=C1O[C@H](c2ccccc2)[C@H](c2ccccc2)N2[C@H]1[C@@H](C(=O)NC[C@H](O)c1ccccc1)[C@]1(C(=O)Nc3ccc(C#CC4(O)CCCCCC4)cc31)[C@H]2c1ccccc1OCCO", 2.07],
  ["O=C1O[C@@H](c2ccccc2)[C@@H](c2ccccc2)N2[C@@H](c3ccc(O)cc3)[C@]3(C(=O)Nc4ccccc43)[C@@H](C(=O)NC[C@H](O)c3ccccc3)[C@H]12", -1.89],
  ["CN1C(=O)C2C=CC(C(O)c3ccc(Br)cc3)N(Nc3ccccc3)C2C1=O (stereo not drawn)", 0.826],
  ["C=CC[C@@]1(C(=O)NCCN2CCOCC2)N=C(c2ccc(OCCCO)cc2)O[C@@H]1c1ccccc1CN=[N+]=[N-]", 0.203],
  ["O=C1C2C=CC(C(O)CCc3ccccc3)N(Nc3ccccc3)C2C(=O)N1c1ccccc1 (stereo not drawn)", 1.42],
  ["C#C[C@H]1Oc2ccccc2S(=O)(=O)N2CCC[C@@H]12", 0.0594],
  ["O=S(=O)(NCCCO)c1ccc(Br)cc1", -1.71],
  ["O=C1O[C@@H](c2ccccc2)[C@@H](c2ccccc2)N2[C@@H](c3ccc(O)cc3)[C@]3(C(=O)Nc4ccc(C#CCCO)cc43)[C@@H](C(=O)N3CCCCCCC3)[C@H]12", 0.541],
  ["CN1C(=O)C2C(C1=O)C1C=C(c3ccc(CO)cc3)C2C(C2CC2)N1Cc1sc2ccccc2c1Cl (stereo not drawn)", 1.82],
  ["CCOC(=O)C[C@H]1[C@H](OC(=O)c2cc3ccccc3oc2=O)[C@@H](NC(=O)c2ccc3ccccc3c2)c2cc(OCCCO)ccc2N1C(=O)c1ccccc1", -2.59],
  ["CCCNC(=O)[C@@]1(C)c2ccccc2C(=O)N(C(C)C)[C@H]1c1ccc(CO)cc1", -0.804],
  ["COc1ccc([Si](C)(C)[C@H]2[C@H](CC(=O)N3CCC[C@H]3CO)O[C@@]3(C(=O)N(Cc4cccc(N5CCC5=O)c4)c4ccccc43)[C@@H]2C)cc1", 0.696],
  ["C=CCOC(=O)[C@H]1[C@@H]2C(=O)O[C@@H](c3ccccc3)[C@@H](c3ccccc3)N2[C@@H](c2ccc(OCCOC(=O)[C@@H]3C[C@@H]4C(=O)NCC(=O)N4[C@@H]3c3ccc(O)cc3)cc2)[C@]12C(=O)Nc1ccc(I)cc12", 0.816],
  ["COCCOC(=O)N1C(=O)[C@@]2(c3cc(C#CCCO)ccc31)[C@H](C(=O)NC[C@H](O)c1ccccc1)[C@H]1C(=O)O[C@H](c3ccccc3)[C@H](c3ccccc3)N1[C@@H]2c1ccc(OCCO)cc1", 0.212],
  ["Cc1ccc(S[C@]2(C(=O)NCCN3CCOCC3)CC(=O)N(C3CCCCC3)[C@@H]2c2ccc(CO)cc2)cc1", 0.377]
]}
